# protocol_summary: Mouse liver microsome stability
# Assay type: in vitro ADME
# condition_description: mouse liver microsomes half-life; read-out: MLM t½
readout_name: half-life at 1 µM (min)

[P] CS(=O)(=O)c1ccc(Nc2ncnc3sc(-c4cccnc4Cl)cc23)cc1 [Compound 15]
[Q] CSc1ccc(Nc2ncnc3cc(-c4cccnc4Cl)sc23)cc1 [Compound 39]
[R] CSc1ccc(Nc2ncnc3sc(-c4ccncc4C)cc23)cc1 [Compound 26]
[S] CS(=O)(=O)c1ccc(Nc2ncnc3scc(Cl)c23)cc1 [Compound 32]
Challenge: Put the items above in order of decreasing half-life at 1 µM. Use the labels to give the requested order.
Response given: P, S, R, Q
(P: 383 min, S: 51.4 min, R: 0.94 min, Q: 0.44 min)

From: paper PMC10583824
